TARGET_UNDER_TEST: cAMP and cAMP-inhibited cGMP 3',5'-cyclic phosphodiesterase 10A (Homo sapiens, UniProt Q9Y233)
Sequence (Q9Y233 whole entry, the tested form may be a part): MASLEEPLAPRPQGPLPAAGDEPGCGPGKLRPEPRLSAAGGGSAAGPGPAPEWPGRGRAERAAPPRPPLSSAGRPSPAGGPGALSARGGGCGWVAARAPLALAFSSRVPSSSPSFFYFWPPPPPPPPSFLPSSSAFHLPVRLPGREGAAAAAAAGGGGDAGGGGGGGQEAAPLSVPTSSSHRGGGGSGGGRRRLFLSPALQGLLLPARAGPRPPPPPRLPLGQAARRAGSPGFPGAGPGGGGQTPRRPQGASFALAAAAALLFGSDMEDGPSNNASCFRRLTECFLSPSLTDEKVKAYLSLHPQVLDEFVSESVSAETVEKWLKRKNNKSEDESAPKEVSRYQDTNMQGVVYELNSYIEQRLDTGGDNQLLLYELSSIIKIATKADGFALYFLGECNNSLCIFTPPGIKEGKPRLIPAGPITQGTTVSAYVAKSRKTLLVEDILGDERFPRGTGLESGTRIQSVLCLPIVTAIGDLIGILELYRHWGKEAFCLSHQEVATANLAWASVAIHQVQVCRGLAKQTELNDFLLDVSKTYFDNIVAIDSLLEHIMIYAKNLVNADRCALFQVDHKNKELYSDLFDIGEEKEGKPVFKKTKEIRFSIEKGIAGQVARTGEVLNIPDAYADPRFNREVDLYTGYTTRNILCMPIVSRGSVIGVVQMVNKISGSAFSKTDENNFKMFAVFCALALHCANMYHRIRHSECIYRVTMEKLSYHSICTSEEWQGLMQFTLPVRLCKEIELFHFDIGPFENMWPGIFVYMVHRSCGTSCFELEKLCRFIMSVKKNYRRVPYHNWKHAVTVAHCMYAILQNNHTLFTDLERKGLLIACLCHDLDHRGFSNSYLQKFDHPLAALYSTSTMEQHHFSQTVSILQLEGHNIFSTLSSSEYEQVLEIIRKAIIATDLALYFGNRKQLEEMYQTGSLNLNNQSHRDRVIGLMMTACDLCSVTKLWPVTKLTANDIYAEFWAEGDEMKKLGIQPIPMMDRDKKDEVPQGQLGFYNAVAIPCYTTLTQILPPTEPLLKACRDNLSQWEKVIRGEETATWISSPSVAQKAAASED
TEST_SUMMARY: Inhibition of recombinant human N-terminal GST-tagged PDE10A1 (2 to 789 residues) expressed in baculovirus infected Sf9 cells at 5 uM using fluorescein-labeled cAMP as substrate preincubated for 15 mins followed by substrate addition measured after 30 mins by IMAP fluorescence polarization assay relative to control
READOUT: inhibition (%)

Use these answered entries as a reference point.
COc1ccc(-c2ccc(CNc3c(C)nc4c(N5CCOCC5)nccn34)cc2)cc1 :: 87
Cc1nc2c(N3CCOCC3)nccn2c1NCc1ccccc1Br :: 73
COc1ccc(CC(=O)Nc2c(C)nc3c(N4CCOCC4)nccn23)cc1OC :: 50

1: COc1ccc(-c2ccccc2CNc2c(C)nc3c(N4CCOCC4)nccn23)cc1
2: Cc1nc2c(N3CCOCC3)ncnc2n1Cc1ccc(-c2cncnc2)cc1
Qu. Would you mind telling me which has the lower recorded inhibition between 1 and 2 ? When you have decided, please share the label of that item.
Ans. 1

---

TARGET_UNDER_TEST: cAMP and cAMP-inhibited cGMP 3',5'-cyclic phosphodiesterase 10A (Homo sapiens)
TEST_SUMMARY: Inhibition of recombinant human N-terminal GST-tagged PDE10A1 (2 to 789 residues) expressed in baculovirus infected Sf9 cells at 5 uM using fluorescein-labeled cAMP as substrate preincubated for 15 mins followed by substrate addition measured after 30 mins by IMAP fluorescence polarization assay relative to control
READOUT: inhibition (%)

Cc1nc2c(N3CCOCC3)ncnc2n1Cc1ccc(-c2ccncc2)cc1 :: 96
Cc1nc2c(N3CCOCC3)nccn2c1NC(=O)Cc1c(Cl)cccc1Cl :: 47
Cc1nc2c(N3CCOCC3)nccn2c1NCCc1c(Cl)cccc1Cl :: 98
Cc1nc2c(N3CCOCC3)nccn2c1NCCc1ccccc1 :: 74
CCc1nc2c(N3CCOCC3)ncnc2n1Cc1ccc(-c2ccccc2)cc1 :: 97
Cc1nc2c(N3CCOCC3)ncnc2n1Cc1ccc(-c2ccccc2Cl)cc1 :: 98

1: Cc1nc2c(N3CCOCC3)ncnc2n1Cc1ccc(-c2cccc(Cl)c2)cc1
2: COc1ccc(-c2ccccc2CNc2c(C)nc3c(N4CCOCC4)nccn23)cc1OC
Qu. Returns: the argument ( 1 or 2 ) having the larger inhibition. Please respond with the label that marks your chosen entry.
Ans. 1

---

TARGET_UNDER_TEST: CYP2C9 (Homo sapiens, UniProt P11712)
Sequence (P11712 whole entry): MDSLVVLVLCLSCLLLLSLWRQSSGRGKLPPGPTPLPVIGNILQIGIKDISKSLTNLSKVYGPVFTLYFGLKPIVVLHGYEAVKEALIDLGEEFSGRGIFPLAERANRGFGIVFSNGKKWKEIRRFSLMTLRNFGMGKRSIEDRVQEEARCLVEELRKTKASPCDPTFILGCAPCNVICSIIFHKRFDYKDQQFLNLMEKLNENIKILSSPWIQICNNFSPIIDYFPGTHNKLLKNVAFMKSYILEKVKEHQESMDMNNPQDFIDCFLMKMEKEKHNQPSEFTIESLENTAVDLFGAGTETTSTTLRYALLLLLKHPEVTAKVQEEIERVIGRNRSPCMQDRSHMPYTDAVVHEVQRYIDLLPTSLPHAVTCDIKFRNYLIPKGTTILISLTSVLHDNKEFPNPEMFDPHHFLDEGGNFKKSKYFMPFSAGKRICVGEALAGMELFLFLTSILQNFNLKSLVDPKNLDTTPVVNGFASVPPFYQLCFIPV
TEST_SUMMARY: Inhibition of CYP2C9 in human microsomes at 10 uM using diclofenac as substrate preincubated for 5 mins followed by NADPH addition measured 20 mins relative to control
Assay type: ADME
CONDITIONS: human microsomes, probe diclofenac, read-out: TDI
READOUT: inhibition at 20 min, 10 µM (%)

Cc1ccc(-c2ccc(Cn3cnc4c(N5CCOCC5)ncnc43)cc2)cc1 :: 30
Cc1nc2c(N3CCOCC3)ncnc2n1Cc1ccc(-c2cnn(C)c2)cc1 :: 10
COc1ccc(-c2ccc(CNc3c(C)nc4c(N5CCOCC5)nccn34)cc2)cc1OC :: 41

I: Cc1cc(-c2ccc(Cn3c(C)nc4c(N5CCOCC5)ncnc43)cc2)ccn1
II: Cc1nc2c(N3CCOCC3)ncnc2n1Cc1ccc(-c2ccccc2Cl)cc1
Qu. Lower value of inhibition at 20 min, 10 µM belongs to which: I or II ? I would appreciate it if you answered with the label of your choice.
Ans. I

---

TEST_SUMMARY: Half life in human liver microsomes at 1 uM preincubated for 5 mins followed by NADPH addition measured up to 30 mins by LC-MS/MS analysis
Format: ADME, microsome
READOUT: half-life at 1 µM (min)

Completed entries (count: 3):
COc1ccc(-c2ccc(CNc3c(C)nc4c(N5CCOCC5)nccn34)cc2)cc1OC :: 18.2
Cc1ccc(-c2ccc(Cn3cnc4c(N5CCOCC5)ncnc43)cc2)cc1 :: 22.4
Cc1nc2c(N3CCOCC3)ncnc2n1Cc1ccc(-c2ccccc2Cl)cc1 :: 43.3

A: Cc1nc2c(N3CCOCC3)ncnc2n1Cc1ccc(-c2cncnc2)cc1
B: Cc1cc(-c2ccc(Cn3c(C)nc4c(N5CCOCC5)ncnc43)cc2)ccn1
C: Cc1nc2c(N3CCOCC3)ncnc2n1Cc1ccc(-c2cnn(C)c2)cc1
Qu. Returns the items ordered by half-life at 1 µM, from maximum to minimum. Returns: the labels arranged in the requested order.
Ans. C, A, B

---

TARGET_UNDER_TEST: UniProt Q9Y233
TEST_SUMMARY: Inhibition of recombinant human N-terminal GST-tagged PDE10A1 (2 to 789 residues) expressed in baculovirus infected Sf9 cells at 5 uM using fluorescein-labeled cAMP as substrate preincubated for 15 mins followed by substrate addition measured after 30 mins by IMAP fluorescence polarization assay relative to control
READOUT: inhibition (%)

# example entries with known answers
Cc1nc2c(N3CCOCC3)nccn2c1NCCc1ccc2ccccc2c1 :: 78
Cc1nc2c(N3CCOCC3)nccn2c1NCc1ccc(-c2ccccc2Cl)cc1 :: 77
Cc1ccc(-c2ccc(CNc3c(C)nc4c(N5CCOCC5)nccn34)cc2)cc1 :: 74
Cc1nc2c(N3CCOCC3)ncnc2n1Cc1ccccc1Br :: 87
Cc1nc2c(N3CCOCC3)nccn2c1NCc1ccc(-c2ccncc2)cc1 :: 91

1: COc1ccc(-c2ccc(CNc3c(C)nc4c(N5CCOCC5)nccn34)cc2)cc1OC
2: Cc1nc2c(N3CCOCC3)nccn2c1NCc1ccc(-c2ccccc2)cc1
Qu. Compare inhibition: is it lower for 1 or for 2 ? Indicate which entry you chose by stating its label.
Ans. 2

---

TARGET_UNDER_TEST: CYP2C19 (Homo sapiens, UniProt P33261)
Sequence (P33261 whole entry): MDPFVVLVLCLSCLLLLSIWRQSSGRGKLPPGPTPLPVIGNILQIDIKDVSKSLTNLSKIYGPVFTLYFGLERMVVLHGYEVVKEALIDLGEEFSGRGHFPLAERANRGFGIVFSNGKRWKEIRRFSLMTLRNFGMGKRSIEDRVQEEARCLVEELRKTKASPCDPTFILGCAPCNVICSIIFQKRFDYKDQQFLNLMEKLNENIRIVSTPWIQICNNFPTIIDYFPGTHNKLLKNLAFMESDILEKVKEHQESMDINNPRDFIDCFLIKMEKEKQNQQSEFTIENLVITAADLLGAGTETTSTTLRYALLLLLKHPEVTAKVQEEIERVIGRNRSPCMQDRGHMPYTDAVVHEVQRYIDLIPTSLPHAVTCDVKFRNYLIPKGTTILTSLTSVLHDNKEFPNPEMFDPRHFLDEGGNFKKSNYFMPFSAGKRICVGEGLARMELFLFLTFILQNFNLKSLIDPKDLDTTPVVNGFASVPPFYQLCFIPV
TEST_SUMMARY: […] of CYP2C19 in human microsomes at 10 uM using mephenytoin as substrate preincubated for 5 mins followed by NADPH addition measured 20 mins relative to control
Format: ADME
CONDITIONS: human microsomes, probe mephenytoin, read-out: TDI
READOUT: inhibition at 20 min, 10 µM (%)

Cc1nc2c(N3CCOCC3)ncnc2n1Cc1ccc(-c2cncnc2)cc1 :: 90
Cc1nc2c(N3CCOCC3)ncnc2n1Cc1ccc(-c2cnn(C)c2)cc1 :: 80
Cc1cc(-c2ccc(Cn3c(C)nc4c(N5CCOCC5)ncnc43)cc2)ccn1 :: 70

---

TARGET_UNDER_TEST: CYP3A4 (Homo sapiens)
Sequence (P08684 whole entry): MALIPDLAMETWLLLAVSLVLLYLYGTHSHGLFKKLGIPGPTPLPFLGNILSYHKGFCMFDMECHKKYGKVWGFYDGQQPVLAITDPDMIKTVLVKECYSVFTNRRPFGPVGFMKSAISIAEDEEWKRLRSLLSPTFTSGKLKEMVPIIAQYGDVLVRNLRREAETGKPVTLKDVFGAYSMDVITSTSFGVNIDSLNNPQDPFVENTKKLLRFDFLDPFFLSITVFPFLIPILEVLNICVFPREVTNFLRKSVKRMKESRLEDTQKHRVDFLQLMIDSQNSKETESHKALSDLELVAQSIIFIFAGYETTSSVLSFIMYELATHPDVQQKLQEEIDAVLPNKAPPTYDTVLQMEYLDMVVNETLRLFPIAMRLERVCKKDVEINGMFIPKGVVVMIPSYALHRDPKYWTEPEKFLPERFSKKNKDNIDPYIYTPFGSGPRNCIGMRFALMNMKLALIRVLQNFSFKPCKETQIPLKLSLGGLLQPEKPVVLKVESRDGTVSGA
TEST_SUMMARY: Inhibition of CYP3A4 in human microsomes at 10 uM using midazolam as substrate preincubated for 5 mins followed by NADPH addition measured 20 mins relative to control
Type: ADME
CONDITIONS: human microsomes, probe midazolam, read-out: TDI
READOUT: inhibition at 20 min, 10 µM (%)

Cc1nc2c(N3CCOCC3)ncnc2n1Cc1ccc(-c2cncnc2)cc1 :: 22
Cc1nc2c(N3CCOCC3)ncnc2n1Cc1ccc(-c2cnn(C)c2)cc1 :: 40
Cc1nc2c(N3CCOCC3)ncnc2n1Cc1ccc(-c2ccccc2Cl)cc1 :: 9

A: Cc1cc(-c2ccc(Cn3c(C)nc4c(N5CCOCC5)ncnc43)cc2)ccn1
B: COc1ccc(-c2ccc(CNc3c(C)nc4c(N5CCOCC5)nccn34)cc2)cc1OC
Qu. Between A and B , whose recorded inhibition at 20 min, 10 µM is greater? Which one? Tell me its label.
Ans. B
(B: 42%, A: 12%)

---

TARGET_UNDER_TEST: cAMP and cAMP-inhibited cGMP 3',5'-cyclic phosphodiesterase 10A (Homo sapiens, UniProt Q9Y233)
TEST_SUMMARY: Inhibition of recombinant human N-terminal GST-tagged PDE10A1 (2 to 789 residues) expressed in baculovirus infected Sf9 cells using fluorescein-labeled cAMP as substrate preincubated for 15 mins followed by substrate addition measured after 30 mins by IMAP fluorescence polarization assay
pIC50: −log10 of the molar value.
READOUT: pIC50

Consider the reported pIC50 for these compounds:
Cc1nc2c(N3CCOCC3)ncnc2n1Cc1ccc(-c2cccnc2)cc1 :: 7.21
Cc1nc2c(N3CCOCC3)ncnc2n1Cc1ccc(-c2ccc(Cl)cc2)cc1 :: 6.77

P: COc1ccc(-c2ccc(Cn3c(C)nc4c(N5CCOCC5)ncnc43)cc2)cc1
Q: COc1ccc(CCNc2c(C)nc3c(N4CCOCC4)nccn23)c(-c2ccccc2)c1
R: CCc1nc2c(N3CCOCC3)ncnc2n1Cc1ccc(-c2ccccc2)cc1
S: Cc1nc2c(N3CCOCC3)ncnc2n1Cc1ccc(-c2ccccc2Cl)cc1
T: c1ccc(-c2ccc(Cn3cnc4c(N5CCOCC5)ncnc43)cc2)cc1
Qu. Hey, quick one: sort these by pIC50, low to high? Response field: labels, in requested order.
Ans. Q, R, T, P, S

---

TARGET_UNDER_TEST: cAMP and cAMP-inhibited cGMP 3',5'-cyclic phosphodiesterase 10A (Homo sapiens, UniProt Q9Y233)
TEST_SUMMARY: Inhibition of recombinant human N-terminal GST-tagged PDE10A1 (2 to 789 residues) expressed in baculovirus infected Sf9 cells at 5 uM using fluorescein-labeled cAMP as substrate preincubated for 15 mins followed by substrate addition measured after 30 mins by IMAP fluorescence polarization assay relative to control
READOUT: inhibition (%)

P: Cc1ccc(-c2ccc(Cn3cnc4c(N5CCOCC5)ncnc43)cc2)cc1
Q: c1ccc(CCn2cnc3c(N4CCOCC4)ncnc32)cc1
Qu. Problem: Given the entries P and Q , determine which has the lower reported inhibition. Identify your selection by its label.
Ans. Q
